Quick reference: inhibition at 1 µM of the listed items.
- TARGET_DESC: recombinant human 17β-hydroxysteroid dehydrogenase type 1 (Homo sapiens, UniProt P14061)
- Construct: made in house; host or cells: Sf9 insect cells (baculovirus, Bac to Bac Expression System)
- Sequence (P14061 whole entry): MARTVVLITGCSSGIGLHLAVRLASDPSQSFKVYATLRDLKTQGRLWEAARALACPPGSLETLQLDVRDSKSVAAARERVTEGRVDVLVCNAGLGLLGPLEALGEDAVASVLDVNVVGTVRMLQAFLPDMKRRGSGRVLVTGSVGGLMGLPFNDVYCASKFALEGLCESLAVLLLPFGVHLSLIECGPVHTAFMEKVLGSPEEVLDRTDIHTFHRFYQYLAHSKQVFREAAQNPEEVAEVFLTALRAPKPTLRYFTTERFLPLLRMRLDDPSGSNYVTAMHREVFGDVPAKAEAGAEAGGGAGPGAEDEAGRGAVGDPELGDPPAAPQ
- PROCEDURE_TEXT: Inhibition of recombinant human 17β-hydroxysteroid dehydrogenase type 1 (conversion of 3H-estrone to estradiol, HPLC)
- Assay type: biochemical
- TEST_CONTEXT: inhibitor 1 μm; 30 nM 3H-estrone, 1 mM NADPH, 30 min at RT; read-out: Inhibition of rec. 17β-HSD1 (% inhibition), 1 μm
ENDPOINT: inhibition at 1 µM (%)

> print(dat)
                                    molecule  unit.annotation  data.value
 1  CCOC(=O)CNNC(=O)CCCCC[C@@H]1CC(=O)[C@@]2(C)CC[C@@H]3c4ccc(OC)cc4CC[C@H]3[C@H]12 [Example 414]                %        49.9
 2  COc1ccc2c(c1)CC[C@H]1[C@@H]3[C@H](CCCOC(=O)Nc4ccc5c(c4)OCO5)CC(=O)[C@@]3(C)CC[C@H]21 [Example 748]                %        90.6
 3  COc1ccc2c(c1)CC[C@H]1[C@@H]3[C@H](CCCNC(=O)Nc4ccc5ccccc5c4)CC(=O)[C@@]3(C)CC[C@H]21 [Example 460]                %        77.2
 4  COc1ccc2c(c1)CC[C@H]1[C@@H]3[C@H](CCCC(=O)NCc4ccccc4)CC(=O)[C@@]3(C)CC[C@H]21 [Example 3B]                %        82.1
 5  C[C@]12CC[C@@H]3c4ccc(O)cc4CC[C@H]3[C@@H]1[C@@H](CNS(=O)(=O)c1cc(S(=O)(=O)c3ccccc3)cs1)CC2=O [Example 679]                %        74.6
 6  C[C@]12CC[C@@H]3c4ccc(O)cc4CC[C@H]3[C@@H]1[C@H](CCCC(=O)NCc1ccc(F)cc1F)CC2=O [Example 37]                %        87.2
 7  COc1ccc2c(c1)CC[C@H]1[C@@H]3[C@H](CCCCCC(=O)NCCc4c[nH]c5c(C)cccc45)CC(=O)[C@@]3(C)CC[C@H]21 [Example 367]                %        73.5
 8  COc1ccc2c(c1)CCC1C2CC[C@]2(C)C(=O)C[C@@H](CCCC(=O)NCCc3cccs3)C12 (stereo partly drawn) [Example 29]                %        69.3
 9  COc1cccc(NC(=O)NCCC[C@@H]2CC(=O)[C@@]3(C)CC[C@@H]4c5ccc(OC)cc5CC[C@H]4[C@H]23)c1 [Example 443]                %        84.1
10  COc1ccc2c(c1)CC[C@H]1[C@@H]3[C@H](CCCC(=O)NCc4ccco4)CC(=O)[C@@]3(C)CC[C@H]21 [Example 7]                %        63.4
11  COc1ccc2c(c1)CC[C@H]1[C@@H]3[C@H](CCCCC(=O)NCCc4cccs4)CC(=O)[C@@]3(C)CC[C@H]21 [Example 346]                %        91.7
12  CN(C[C@H]1CC(=O)[C@@]2(C)CC[C@@H]3c4ccc(O)cc4CC[C@H]3[C@H]12)S(=O)(=O)c1ccc2ccccc2c1 [Example 681]                %        87.1
13  CCCCNC(=O)CCCC[C@@H]1CC(=O)[C@@]2(C)CC[C@@H]3c4ccc(OC)cc4CC[C@H]3[C@H]12 [Example 345]                %        85.6
14  COc1ccc2c(c1)CC[C@H]1[C@@H]3[C@H](CCC(=O)NCc4ccc(Cl)cc4)CC(=O)[C@@]3(C)CC[C@H]21 [Example 323]                %        72.7
15  COc1ccc2c(c1)CC[C@H]1[C@@H]3[C@H](CCCCC(=O)NCc4ccc(Cl)cc4)CC(=O)[C@@]3(C)CC[C@H]21 [Example 343]                %          86
16  CN(C[C@H]1CC(=O)[C@@]2(C)CC[C@@H]3c4ccc(O)cc4CC[C@H]3[C@H]12)S(=O)(=O)c1cc(S(=O)(=O)c2ccccc2)cs1 [Example 696]                %        80.5
17  COc1ccc2c(c1)CCC1C2CC[C@]2(C)C(=O)C[C@H](C(=O)NCc3nc4ccccc4[nH]3)C12 (stereo partly drawn) [Example 58]                %        65.3
18  COc1ccc(S(=O)(=O)N(C)C[C@H]2CC(=O)[C@@]3(C)CC[C@@H]4c5ccc(O)cc5CC[C@H]4[C@H]23)cc1 [Example 688]                %        91.3
19  COc1ccc2c(c1)CC[C@H]1[C@@H]3[C@H](CCCCCC(=O)N4CCOCC4)CC(=O)[C@@]3(C)CC[C@H]21 [Example 354]                %        80.3
20  C[C@]12CC[C@@H]3c4ccc(O)cc4CC[C@H]3[C@@H]1[C@@H](CNS(=O)(=O)c1cccs1)CC2=O [Example 662]                %        94.8
21  COc1ccc2c(c1)CC[C@H]1[C@@H]3[C@H](CCCCCC(=O)N(C)Cc4ccccc4)CC(=O)[C@@]3(C)CC[C@H]21 [Example 364]                %        90.8
22  COc1ccc2c(c1)CC[C@H]1[C@@H]3[C@H](CCCCCC(=O)NCc4cccc(F)c4)CC(=O)[C@@]3(C)CC[C@H]21 [Example 361]                %        84.2
23  COc1ccc2c(c1)CC[C@H]1[C@@H]3[C@H](CCCNC(=O)NCc4ccccc4)CC(=O)[C@@]3(C)CC[C@H]21 [Example 452]                %        82.9
24  COc1ccc2c(c1)CC[C@H]1[C@@H]3[C@H](CCCCCC(=O)NCc4ccccc4OC)CC(=O)[C@@]3(C)CC[C@H]21 [Example 360]                %        85.6
